Target under test: CYP2C9 (Homo sapiens, UniProt P11712)
Sequence (P11712 whole entry): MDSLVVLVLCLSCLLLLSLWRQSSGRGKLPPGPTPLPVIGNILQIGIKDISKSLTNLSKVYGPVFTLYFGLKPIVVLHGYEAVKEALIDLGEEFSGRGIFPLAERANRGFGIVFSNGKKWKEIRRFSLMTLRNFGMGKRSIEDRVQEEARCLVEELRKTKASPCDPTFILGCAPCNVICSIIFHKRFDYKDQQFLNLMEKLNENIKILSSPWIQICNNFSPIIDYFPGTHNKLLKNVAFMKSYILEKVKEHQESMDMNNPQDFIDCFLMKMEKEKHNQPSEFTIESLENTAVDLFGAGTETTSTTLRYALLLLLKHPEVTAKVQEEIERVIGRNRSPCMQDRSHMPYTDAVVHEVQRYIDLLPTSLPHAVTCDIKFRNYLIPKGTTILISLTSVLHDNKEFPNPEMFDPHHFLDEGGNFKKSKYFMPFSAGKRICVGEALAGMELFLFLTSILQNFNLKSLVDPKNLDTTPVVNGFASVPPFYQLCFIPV
pIC50: −log10 of the molar value.
Measure name: pIC50

molecule="CC(C)(C)C(=O)O[C@@H]1[C@@H]2[C@H]3C[C@H](C[C@@H]1N3Cc1ccccn1)CN2C(=O)CC(F)(F)F (relative stereo)" measure_name=pIC50 obs_value=5.40

====

Protocol details: in vivo
Design: species or system mice
Measurement conditions: mouse, in vivo, po, 50 mg/kg, mice, oral 50 mg/kg, 5 min to 8 h; read-out: tissue-to-plasma concentration ratio, heart
Measure name: Kp

compound="CC(C)(C)C(=O)O[C@@H]1[C@@H]2[C@H]3C[C@H](C[C@@H]1N3Cc1ccccn1)CN2C(=O)CC(F)(F)F (relative stereo)" measure_name=Kp obs_value=6.6

====

Protocol details: in vivo
Measurement conditions: mouse, in vivo, mice, oral 50 mg/kg vs intravenous 5 mg/kg; read-out: absolute oral bioavailability
Measure name: bioavailability (%)

compound="CC(C)(C)C(=O)O[C@@H]1[C@@H]2[C@H]3C[C@H](C[C@@H]1N3Cc1ccccn1)CN2C(=O)CC(F)(F)F (relative stereo)" obs_value=10.5

====

Protocol details: in vivo
Parameters: species or system mice
Measurement conditions: male, mouse, in vivo, po, 50 mg/kg, mice, oral 50 mg/kg, 5 min to 8 h; read-out: tissue-to-plasma concentration ratio, testes, range
Measure name: Kp

molecule="CC(C)(C)C(=O)O[C@@H]1[C@@H]2[C@H]3C[C@H](C[C@@H]1N3Cc1ccccn1)CN2C(=O)CC(F)(F)F (relative stereo)" measure_name=Kp obs_value="2.1 to 8"

====

Protocol details: in vivo
Parameters: species or system mice
Measurement conditions: mouse, in vivo, po, 50 mg/kg, mice, oral 50 mg/kg, 5 min to 8 h; read-out: tissue-to-plasma concentration ratio, brain
Method: Tissue distribution studies were conducted by administration of the compound to mice at a dose of 50 mg/kg orally and intravenously. Plasma and tissue samples were collected at various times from 5 min to 8 h. […]
Measure name: Kp

compound="CC(C)(C)C(=O)O[C@@H]1[C@@H]2[C@H]3C[C@H](C[C@@H]1N3Cc1ccccn1)CN2C(=O)CC(F)(F)F (relative stereo) [Formula 1]" measure_name=Kp obs_value=0.6

====

Protocol details: in vivo
Design: species or system mice
Measurement conditions: mouse, in vivo, sc, Plasma, Mean
Measure name: AUC(0-t)

compound="CC(C)(C)C(=O)O[C@@H]1[C@@H]2[C@H]3C[C@H](C[C@@H]1N3Cc1ccccn1)CN2C(=O)CC(F)(F)F (relative stereo)" measure_name=AUC(0-t) obs_value="1380 ng·h/mL"

====

Protocol details: in vivo
Set-up: species or system mice
Measurement conditions: mouse, in vivo, po, 50 mg/kg, mice, oral 50 mg/kg, 5 min to 8 h; read-out: tissue-to-plasma concentration ratio, brain, range
Measure name: Kp

compound="CC(C)(C)C(=O)O[C@@H]1[C@@H]2[C@H]3C[C@H](C[C@@H]1N3Cc1ccccn1)CN2C(=O)CC(F)(F)F (relative stereo) [Formula 1]" obs_value="0.3 to 1.1"

====

Protocol details: in vivo
Parameters: species or system mice
Measurement conditions: mouse, in vivo, po, 50 mg/kg, mice, oral 50 mg/kg, 5 min to 8 h; read-out: tissue-to-plasma concentration ratio, spleen, range
Measure name: Kp

compound="CC(C)(C)C(=O)O[C@@H]1[C@@H]2[C@H]3C[C@H](C[C@@H]1N3Cc1ccccn1)CN2C(=O)CC(F)(F)F (relative stereo) [Formula 1]" measure_name=Kp obs_value="11.5 to 341"

====

Target under test: CYP3A4 (Homo sapiens, UniProt P08684)
Sequence (P08684 whole entry): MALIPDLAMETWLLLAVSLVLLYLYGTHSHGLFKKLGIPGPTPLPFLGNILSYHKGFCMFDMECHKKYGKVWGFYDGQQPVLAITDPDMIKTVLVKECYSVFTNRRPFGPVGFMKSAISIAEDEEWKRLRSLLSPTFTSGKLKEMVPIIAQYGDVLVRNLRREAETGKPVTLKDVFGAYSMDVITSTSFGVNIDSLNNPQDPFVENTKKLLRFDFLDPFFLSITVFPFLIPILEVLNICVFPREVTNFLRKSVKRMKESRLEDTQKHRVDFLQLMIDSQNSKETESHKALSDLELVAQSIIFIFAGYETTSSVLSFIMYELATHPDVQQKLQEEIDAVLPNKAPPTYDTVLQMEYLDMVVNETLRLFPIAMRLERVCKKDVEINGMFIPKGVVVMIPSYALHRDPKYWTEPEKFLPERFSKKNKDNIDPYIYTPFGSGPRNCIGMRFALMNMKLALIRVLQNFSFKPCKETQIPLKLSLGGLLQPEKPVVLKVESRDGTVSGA
pIC50: −log10 of the molar value.
Measure name: pIC50

molecule="CC(C)(C)C(=O)O[C@@H]1[C@@H]2[C@H]3C[C@H](C[C@@H]1N3Cc1ccccn1)CN2C(=O)CC(F)(F)F (relative stereo)" target_under_test="CYP3A4 (Homo sapiens, UniProt P08684)" measure_name=pIC50 obs_value="< 5.00"

====

Protocol details: in vivo
Parameters: species or system mice
Measurement conditions: male, mouse, in vivo, po, 50 mg/kg, mice, oral 50 mg/kg, 5 min to 8 h; read-out: tissue-to-plasma concentration ratio, testes
Measure name: Kp

molecule="CC(C)(C)C(=O)O[C@@H]1[C@@H]2[C@H]3C[C@H](C[C@@H]1N3Cc1ccccn1)CN2C(=O)CC(F)(F)F (relative stereo)" measure_name=Kp obs_value=5.2

====

Protocol details: in vivo
Parameters: species or system mice
Measurement conditions: mouse, in vivo, Brain, second block of the table, route not given, Mean
Measure name: Tmax (min)

molecule="CC(C)(C)C(=O)O[C@@H]1[C@@H]2[C@H]3C[C@H](C[C@@H]1N3Cc1ccccn1)CN2C(=O)CC(F)(F)F (relative stereo)" obs_value=4.8

====

Protocol details: in vivo
Design: species or system mice
Measurement conditions: mouse, in vivo, Plasma, second block of the table, route not given, Mean
Method: Tissue distribution studies were conducted by administration of the compound to mice at a dose of 50 mg/kg orally and intravenously. Plasma and tissue samples were collected at various times from 5 min to 8 h. […]
Measure name: Cmax (ng/mL)

compound="CC(C)(C)C(=O)O[C@@H]1[C@@H]2[C@H]3C[C@H](C[C@@H]1N3Cc1ccccn1)CN2C(=O)CC(F)(F)F (relative stereo)" obs_value=3080

====

Protocol details: in vivo
Parameters: species or system mice
Measurement conditions: mouse, in vivo, po, 50 mg/kg, mice, oral 50 mg/kg, 5 min to 8 h; read-out: tissue-to-plasma concentration ratio, lung
Measure name: Kp

compound="CC(C)(C)C(=O)O[C@@H]1[C@@H]2[C@H]3C[C@H](C[C@@H]1N3Cc1ccccn1)CN2C(=O)CC(F)(F)F (relative stereo)" obs_value=24

====

Protocol details: in vivo
Parameters: species or system mice
Measurement conditions: mouse, in vivo, po, 50 mg/kg, mice, oral 50 mg/kg, 5 min to 8 h; read-out: tissue-to-plasma concentration ratio, heart, range
Measure name: Kp

compound="CC(C)(C)C(=O)O[C@@H]1[C@@H]2[C@H]3C[C@H](C[C@@H]1N3Cc1ccccn1)CN2C(=O)CC(F)(F)F (relative stereo) [Formula 1]" obs_value="1.2 to 14.9"

====

Protocol details: in vivo
Design: species or system mice
Measurement conditions: mouse, in vivo, Plasma, second block of the table, route not given, Mean
Measure name: AUC(0-t)

molecule="CC(C)(C)C(=O)O[C@@H]1[C@@H]2[C@H]3C[C@H](C[C@@H]1N3Cc1ccccn1)CN2C(=O)CC(F)(F)F (relative stereo)" obs_value="2590 ng·h/mL"

====

Protocol details: in vivo
Design: species or system mice
Measurement conditions: mouse, in vivo, Plasma, second block of the table, route not given, Mean; read-out: AUCINF_obs
Measure name: AUC(0-inf) (ng·h/mL)

compound="CC(C)(C)C(=O)O[C@@H]1[C@@H]2[C@H]3C[C@H](C[C@@H]1N3Cc1ccccn1)CN2C(=O)CC(F)(F)F (relative stereo)" obs_value=2610

====

Protocol details: in vitro
Format: in vitro ADME
Measurement conditions: rat liver microsomes, 1 μM
Description: Metabolic stability studies in mouse, rat and human liver microsomes were performed at a compound concentration of 1 μM.
Measure name: half-life

compound="CC(C)(C)C(=O)O[C@@H]1[C@@H]2[C@H]3C[C@H](C[C@@H]1N3Cc1ccccn1)CN2C(=O)CC(F)(F)F (relative stereo)" obs_value="< 4 min"

====

Protocol details: in vitro
Assay type: in vitro ADME
Measurement conditions: human, Caco-2
Measure name: efflux ratio

compound="CC(C)(C)C(=O)O[C@@H]1[C@@H]2[C@H]3C[C@H](C[C@@H]1N3Cc1ccccn1)CN2C(=O)CC(F)(F)F (relative stereo)" obs_value=10.4

====

Target under test: UniProt P10635
Sequence (P10635 whole entry): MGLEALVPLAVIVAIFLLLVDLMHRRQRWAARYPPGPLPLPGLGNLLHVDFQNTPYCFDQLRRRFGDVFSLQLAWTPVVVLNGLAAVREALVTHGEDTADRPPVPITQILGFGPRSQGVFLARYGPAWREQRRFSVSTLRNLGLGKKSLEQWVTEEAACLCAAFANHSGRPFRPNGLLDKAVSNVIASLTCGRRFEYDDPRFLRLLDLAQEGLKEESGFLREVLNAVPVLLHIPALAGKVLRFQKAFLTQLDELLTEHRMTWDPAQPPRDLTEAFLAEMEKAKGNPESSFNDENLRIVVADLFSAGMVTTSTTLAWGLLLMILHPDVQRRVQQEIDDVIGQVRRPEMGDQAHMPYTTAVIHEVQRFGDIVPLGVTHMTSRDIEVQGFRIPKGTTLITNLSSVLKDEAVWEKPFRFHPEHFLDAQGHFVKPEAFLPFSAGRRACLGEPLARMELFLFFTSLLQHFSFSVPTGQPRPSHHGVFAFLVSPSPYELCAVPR
Measure name: IC50

compound="CC(C)(C)C(=O)O[C@@H]1[C@@H]2[C@H]3C[C@H](C[C@@H]1N3Cc1ccccn1)CN2C(=O)CC(F)(F)F (relative stereo) [Formula 1]" measure_name=IC50 obs_value="> 10 µM"

====

Target under test: UniProt Q12809
Sequence (Q12809 whole entry): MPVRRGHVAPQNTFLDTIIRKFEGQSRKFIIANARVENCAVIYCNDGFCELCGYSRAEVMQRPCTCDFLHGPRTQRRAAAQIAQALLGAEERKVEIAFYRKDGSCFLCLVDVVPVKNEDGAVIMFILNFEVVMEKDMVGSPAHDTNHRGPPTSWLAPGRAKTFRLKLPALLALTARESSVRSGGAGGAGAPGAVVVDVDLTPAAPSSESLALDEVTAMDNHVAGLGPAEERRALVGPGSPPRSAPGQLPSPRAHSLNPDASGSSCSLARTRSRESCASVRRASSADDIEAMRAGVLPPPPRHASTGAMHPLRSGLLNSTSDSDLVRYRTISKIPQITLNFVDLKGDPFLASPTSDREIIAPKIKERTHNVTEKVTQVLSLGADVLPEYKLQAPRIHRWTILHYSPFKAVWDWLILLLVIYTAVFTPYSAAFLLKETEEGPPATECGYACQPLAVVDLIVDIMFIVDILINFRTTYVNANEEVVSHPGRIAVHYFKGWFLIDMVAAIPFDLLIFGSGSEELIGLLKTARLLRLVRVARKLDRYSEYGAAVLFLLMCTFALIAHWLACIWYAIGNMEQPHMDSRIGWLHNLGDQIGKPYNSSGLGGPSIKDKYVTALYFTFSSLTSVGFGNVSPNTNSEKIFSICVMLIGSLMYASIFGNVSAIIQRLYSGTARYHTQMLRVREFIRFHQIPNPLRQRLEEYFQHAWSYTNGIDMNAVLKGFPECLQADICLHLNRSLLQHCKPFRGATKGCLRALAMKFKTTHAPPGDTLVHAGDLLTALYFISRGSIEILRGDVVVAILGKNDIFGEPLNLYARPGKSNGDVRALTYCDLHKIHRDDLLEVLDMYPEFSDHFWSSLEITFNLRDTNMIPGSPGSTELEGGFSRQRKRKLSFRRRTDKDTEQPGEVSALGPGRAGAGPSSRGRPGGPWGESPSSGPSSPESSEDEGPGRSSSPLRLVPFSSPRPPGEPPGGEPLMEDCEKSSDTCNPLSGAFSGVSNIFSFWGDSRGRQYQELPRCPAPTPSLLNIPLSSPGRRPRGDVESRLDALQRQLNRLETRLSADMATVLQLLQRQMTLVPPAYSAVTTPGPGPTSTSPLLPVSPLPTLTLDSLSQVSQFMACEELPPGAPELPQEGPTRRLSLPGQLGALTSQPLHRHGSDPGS
Measure name: IC50

molecule="CC(C)(C)C(=O)O[C@@H]1[C@@H]2[C@H]3C[C@H](C[C@@H]1N3Cc1ccccn1)CN2C(=O)CC(F)(F)F (relative stereo)" obs_value="> 10 µM"

====

Protocol details: in vivo
Measurement conditions: mouse, in vivo, po, mice, oral, two additional sets of data; read-out: terminal half-life (converted)
Measure name: half-life (h)

molecule="CC(C)(C)C(=O)O[C@@H]1[C@@H]2[C@H]3C[C@H](C[C@@H]1N3Cc1ccccn1)CN2C(=O)CC(F)(F)F (relative stereo) [Formula 1]" unit_abbreviation=h obs_value=1.19

====

Protocol details: in vivo
Measurement conditions: mouse, in vivo; mice, intravenous 5 mg/kg; read-out: steady-state volume of distribution (Vss)
Measure name: Vd (L/kg)

compound="CC(C)(C)C(=O)O[C@@H]1[C@@H]2[C@H]3C[C@H](C[C@@H]1N3Cc1ccccn1)CN2C(=O)CC(F)(F)F (relative stereo)" unit_abbreviation=L/kg obs_value=1.08
